Catalogue of compounds with associated GI50
test system: HCC 2998; test: NCI tumour cell line growth inhibition, 48 h
Calls of active or inactive are those of the source. Rule as the data show it: active = GI50 up to about 1.1 µM and inactive = higher.

As a guide, the following entries are already answered.
[
  {
    "compound": "C=Cc1ccc(C)[n+](C[Si](C)(C)O[Si](C)(C)C)c1",
    "target_of_assay": "HCC 2998",
    "GI50": "> 100 µM (inactive)"
  },
  {
    "compound": "O=C(NCCCCNCCCNC(=O)OCc1ccccc1)OCc1ccccc1",
    "target_of_assay": "HCC 2998",
    "GI50": "19.5 µM (inactive)"
  },
  {
    "compound": "CC(C)(C)OC(=O)NCCc1cccc2c1oc1c(CCC(=O)O)cccc12",
    "target_of_assay": "HCC 2998",
    "GI50": "> 100 µM (inactive)"
  }
]

Which GI50 is listed for `O=S(=O)(CC#CCS(=O)(=O)c1ccccc1)c1ccccc1` ?
18.7 µM (inactive)

Which GI50 is listed for `CCn1c2ccccc2c2ccc3c(c21)C(=O)C=CC3=O` ?
20.9 µM (inactive)

Which GI50 is listed for `CCOC(=O)/C(C(=O)c1ccccc1)=C1/NCCN1C` ?
> 100 µM (inactive)

Which GI50 is listed for CCOC(=O)[C@@]1(C)CC(O)C(=O)N1C (stereo not given in full) ?
> 100 µM (inactive)

Which GI50 is listed for COc1ccc(P2(=S)SP(=S)(c3ccc(Cl)cc3)S2)cc1 (stereo not given) ?
> 100 µM (inactive)

Which GI50 is listed for CC1OC(OCC2OC(Oc3c(-c4ccc(O)cc4)oc4cc(O)cc(O)c4c3=O)C(OC3OC(C)C(O)C(O)C3O)C(O)C2O)C(O)C(O)C1O (stereo not given) ?
> 100 µM (inactive)

Which GI50 is listed for O=[N+]([O-])c1cccc(C(O)/C(=N/O)c2nc3ccc(Cl)cc3nc2O)c1 (stereo not given) ?
> 100 µM (inactive)

---

test system: SK-MEL-2; test: NCI tumour cell line growth inhibition, 48 h
Calls of active or inactive are those of the source. Cut-off read from the data, not from the text of the source: active = GI50 up to about 1.1 µM and inactive = higher.
Pick one: active, inactive

Field: example entries. Status: answers known.
[
  {
    "compound": "O=C1c2ccccc2C(=O)c2c(O)c(O)cc(O)c21 [PURPURIN]",
    "classification": "inactive"
  },
  {
    "compound": "C/C(=C\\c1csc(C)n1)[C@@H]1C[C@@H]2O[C@@H]2CCC[C@H](C)[C@H](O)[C@@H](C)C(=O)C(C)(C)[C@@H](O)CC(=O)O1 [EPOTHILONE A]",
    "classification": "active"
  },
  {
    "compound": "Cc1cc(=O)oc2cc(O)ccc12 [HYMECROMONE]",
    "classification": "inactive"
  },
  {
    "compound": "CON(C)C(=O)CCCO",
    "classification": "inactive"
  },
  {
    "compound": "Cc1cc(=O)nc(S(=O)(=O)NC(=O)Nc2cccc(Cl)c2)[nH]1",
    "classification": "inactive"
  }
]

Pending compound:
Answer briefly: the call reported for `O=S(=O)(CC#CCS(=O)(=O)c1ccccc1)c1ccccc1` in this assay.
inactive

---

Catalogue of compounds with associated GI50
tested on: U-251; assay: NCI tumour cell line growth inhibition, 48 h
Active and inactive are the calls of the source. Cut-off read from the data, not from the text of the source: active = GI50 up to about 1.1 µM and inactive = higher.

As a guide, the following entries are already answered.
[
  {
    "compound": "COc1ccc(/C=C2\\CCC(CN(C)C)C2=O)cc1 (stereo unspecified)",
    "GI50": "18.3 µM (inactive)"
  },
  {
    "compound": "C=Cc1ccc(C)[n+](C[Si](C)(C)O[Si](C)(C)C)c1",
    "GI50": "> 100 µM (inactive)"
  },
  {
    "compound": "O=C1c2ccccc2C(=O)c2c(O)c(O)cc(O)c21 [PURPURIN]",
    "GI50": "35.6 µM (inactive)"
  },
  {
    "compound": "Clc1cccc(Cl)c1C1ON=C(c2ccccc2)N1C12CC3CC(CC(C3)C1)C2 (stereo unspecified)",
    "GI50": "62.5 µM (inactive)"
  },
  {
    "compound": "CCOC(=O)CCc1cccc2c1oc1c(CCNC(=O)OCC3c4ccccc4-c4ccccc43)cccc12",
    "GI50": "57.3 µM (inactive)"
  },
  {
    "compound": "CC1(c2ccccc2)CC(c2cccc([N+](=O)[O-])c2)=NO1 (stereo unspecified)",
    "GI50": "> 100 µM (inactive)"
  }
]

Consider now this further compound.
Which GI50 is listed for `CNC(=O)N(C)/N=N/CCCl` ?
> 100 µM (inactive)

The values you see were collected from ChEMBL document CHEMBL1201862.
